pIC50: −log10 of the molar value.
A set of compounds tested on CLK1 (Homo sapiens (Human), UniProt P49759), with measured pIC50:
measured_attribute: pIC50

[[record]]
compound = "CCOc1c2c(nn1C)CN(C(C)=O)CCOc1c(cnn1C)-c1ccc3[nH]nc(c3c1)/C=C/2 [Example 294]"
observed = 8.90

[[record]]
compound = "Cc1onc2c1/C=C/c1n[nH]c3ccc(cc13)-c1cnn(C)c1OCCOC2 [Example 320]"
observed = 9.49

[[record]]
compound = "Cn1nc(C#N)c2c1COCCOc1c(cnn1C)-c1ccc3[nH]nc(c3c1)/C=C/2 [Example 302]"
observed = 8.92


(1) CC(C)Oc1nn(CCO)c2c1/C=C/c1n[nH]c3ccc(cc13)-c1cnn(C)c1O[C@@H](C)[C@H]1CCCN1C2 [Example 252]
(2) CC(C)Oc1nn(CCO)c2c1/C=C/c1n[nH]c3ccc(cc13)-c1cnn(C)c1OC[C@H](C)N(C1CC1)C2 [Example 213]
(3) Cc1nn(C)c2c1/C=C/c1n[nH]c3ccc(cc13)-c1cnn(C)c1O[C@@H]1CCN(C2)C1 [Example 167]
(4) CCOc1nn(CCO)c2c1/C=C/c1n[nH]c3ccc(cc13)-c1c(C)nn(C)c1O[C@@H](C)CN(C(C)C)C2 [Example 142]
Prompt line: Rank the 4 compounds: largest pIC50 first, smallest last. Your reply should list the labels following the order given in the request.
Response line: 3, 1, 2, 4

====

assay_target: EGFR Δ746-750/C797S mutant (Homo sapiens (Human), UniProt P00533, C797S/DEL746-750)
Sequence (P00533 other isoform, or with tags, fused parts or gaps C797S/del 1-668/del 746-750 limits assumed): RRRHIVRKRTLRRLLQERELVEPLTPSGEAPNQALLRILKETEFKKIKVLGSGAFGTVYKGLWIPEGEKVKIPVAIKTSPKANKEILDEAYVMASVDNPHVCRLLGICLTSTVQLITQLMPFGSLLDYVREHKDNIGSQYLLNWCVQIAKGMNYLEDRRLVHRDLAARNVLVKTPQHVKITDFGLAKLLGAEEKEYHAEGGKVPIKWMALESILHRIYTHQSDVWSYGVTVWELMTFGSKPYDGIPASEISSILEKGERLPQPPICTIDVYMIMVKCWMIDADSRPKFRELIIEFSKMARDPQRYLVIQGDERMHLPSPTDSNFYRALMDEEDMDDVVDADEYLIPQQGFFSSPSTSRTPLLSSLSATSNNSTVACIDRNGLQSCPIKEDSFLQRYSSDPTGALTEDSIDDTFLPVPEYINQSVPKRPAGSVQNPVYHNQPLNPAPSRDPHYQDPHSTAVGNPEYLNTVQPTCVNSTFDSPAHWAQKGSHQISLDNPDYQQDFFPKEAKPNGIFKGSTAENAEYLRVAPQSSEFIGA
assay_procedure: HotSpot radiometric kinase assay, EGFR Δ746-750/C797S mutant
assay_context: 10 μM ATP
Description: Biochemical Assays for Inhibition of Wild-Type and Mutant EGFRs Briefly, specific kinase/substrate pairs along with required cofactors were prepared in reaction buffer; 20 mM Hepes pH 7.5, 10 mM […], 1 mM EGTA, 0.02% Brij35, 0.02 mg/ml BSA, 0.1 mM Na3VO4, 2 mM DTT, 1% DMSO. Compounds were delivered into the reaction, followed […] later by addition of a mixture of ATP (Sigma, St. Louis MO) and ^33P ATP (Perkin Elmer, Waltham MA) to a final concentration of 10 μM. […]
pIC50: −log10 of the molar value.
measured_attribute: pIC50

// worked examples, pIC50 included
[[record]]
record_smiles = "CCc1nn(C)c2c1/C=C/c1n[nH]c3ccc(cc13)-c1cnn(C)c1OCC[C@H](C)O2"
observed = 7.46

[[record]]
record_smiles = "CN1CCC(c2ccc3c(c2)O[C@@H]2CCN(CCOc4c(cnn4C)-c4ccc5[nH]nc(c5c4)/C=C/3)C2=O)CC1"
observed = 8.56


(P) CCOC(=O)Cn1nc(OCC)c2c1CN(CC)C[C@H](C)Oc1c(cnn1C)-c1ccc3[nH]nc(c3c1)/C=C/2
(Q) Cc1nn(CCO)c2c1/C=C/c1n[nH]c3cc(F)c(cc13)-c1cnn(C)c1O[C@@H](C)CN(C)C2
Prompt line: // compare: P vs Q , metric pIC50, want the smaller # respond with the chosen item's label
Response line: P

====

assay_target: EGFR L858R/T790M/C797S mutant (Homo sapiens (Human), UniProt P00533, C797S/L858R/T790M)
Sequence (P00533 25-1210 T790M/C797S/L858R): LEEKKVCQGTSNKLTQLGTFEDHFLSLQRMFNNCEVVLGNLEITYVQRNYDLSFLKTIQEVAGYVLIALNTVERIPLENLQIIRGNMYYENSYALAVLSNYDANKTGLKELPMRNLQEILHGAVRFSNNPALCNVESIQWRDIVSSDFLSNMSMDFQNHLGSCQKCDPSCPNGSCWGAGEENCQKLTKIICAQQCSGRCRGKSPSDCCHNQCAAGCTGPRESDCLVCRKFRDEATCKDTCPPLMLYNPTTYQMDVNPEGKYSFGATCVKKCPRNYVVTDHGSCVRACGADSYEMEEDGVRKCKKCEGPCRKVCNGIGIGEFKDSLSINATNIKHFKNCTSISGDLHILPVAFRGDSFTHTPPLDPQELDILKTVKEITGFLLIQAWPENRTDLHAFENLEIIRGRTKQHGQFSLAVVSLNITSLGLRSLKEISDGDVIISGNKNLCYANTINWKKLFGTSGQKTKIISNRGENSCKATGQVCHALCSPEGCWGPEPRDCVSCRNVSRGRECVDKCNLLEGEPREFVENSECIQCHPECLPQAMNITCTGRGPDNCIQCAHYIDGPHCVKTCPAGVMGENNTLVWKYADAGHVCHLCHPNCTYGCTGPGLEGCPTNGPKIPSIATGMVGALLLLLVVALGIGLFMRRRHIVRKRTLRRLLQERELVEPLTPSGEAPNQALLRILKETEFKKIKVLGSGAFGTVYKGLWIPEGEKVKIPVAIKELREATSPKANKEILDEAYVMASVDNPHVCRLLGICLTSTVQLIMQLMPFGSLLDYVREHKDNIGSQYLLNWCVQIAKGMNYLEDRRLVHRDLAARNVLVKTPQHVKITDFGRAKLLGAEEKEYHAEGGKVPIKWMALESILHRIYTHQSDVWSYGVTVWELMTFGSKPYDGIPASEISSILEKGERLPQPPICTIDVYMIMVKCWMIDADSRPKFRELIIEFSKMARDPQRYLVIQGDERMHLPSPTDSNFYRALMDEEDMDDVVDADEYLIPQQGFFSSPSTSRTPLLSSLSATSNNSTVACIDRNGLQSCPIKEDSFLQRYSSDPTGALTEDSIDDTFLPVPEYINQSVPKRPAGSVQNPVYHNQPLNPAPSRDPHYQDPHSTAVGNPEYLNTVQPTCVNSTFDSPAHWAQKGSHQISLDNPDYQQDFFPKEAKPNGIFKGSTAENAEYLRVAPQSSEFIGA
assay_procedure: HotSpot radiometric kinase assay, EGFR L858R/T790M/C797S mutant
Assay type: biochemical
assay_context: 10 μM ATP
pIC50: −log10 of the molar value.
measured_attribute: pIC50

[[record]]
compound = "Cc1c2c(nn1C[C@@H](C)O)CN(C)C[C@H](C)Oc1c(cnn1C)-c1ccc3[nH]nc(c3c1)/C=C/2"
observed = 9.00

[[record]]
compound = "CC(C)Oc1nn(CCO)c2c1/C=C/c1n[nH]c3ccc(cc13)-c1cnn(C)c1OCC(CF)N(C)C2 (centres unmarked)"
observed = 9.22

[[record]]
compound = "Cc1nn(C)c2c1/C=C/c1n[nH]c3ccc(cc13)-c1cnn(C)c1O[C@@H](C)CN(C1CC1)C2"
observed = 8.85

[[record]]
compound = "CCOc1nn(C)c2c1/C=C/c1n[nH]c3cc(F)c(cc13)-c1cnn(C)c1OC1CCCN(C2)C1 (stereo in doubt)"
observed = 7.71


(P) Cc1c2c(nn1CCN1CCCC1)OCCCOc1c(cnn1C)-c1ccc3[nH]nc(c3c1)/C=C/2
(Q) CC(C)Oc1nn(CCO)c2c1/C=C/c1n[nH]c3ccc(cc13)-c1cnn(C)c1OC(CF)CN(C)C2 (centres unmarked)
(R) CN(C)Cc1ccc2c(c1)O[C@@H]1CCN(CCOc3c(cnn3C)-c3ccc4[nH]nc(c4c3)/C=C/2)C1=O
Prompt line: Rank the 3 compounds: largest pIC50 first, smallest last. Your reply should list the labels following the order given in the request.
Response line: Q, R, P

(A) COCc1nn(CCO)c2c1/C=C/c1n[nH]c3ccc(cc13)-c1cnn(C)c1O[C@@H](C)CN(C)C2
(B) Cc1nn(CCN2CCCC2)c2c1/C=C/c1n[nH]c3ccc(cc13)-c1cnn(C)c1OCCCO2
Prompt line: Could you point out whether the larger pIC50 belongs to A or to B ? # respond with the chosen item's label
Response line: A
(A: 8.29, B: 7.43)

(P) CC(C)Oc1nn(CCO)c2c1/C=C/c1n[nH]c3cc(F)c(cc13)-c1cnn(C)c1O[C@@H]1CCCN(C2)C1
(Q) CCc1noc2c1/C=C/c1n[nH]c3ccc(cc13)-c1cnn(C)c1O[C@@H](C)CN(C)C2
Prompt line: Could you point out whether the larger pIC50 belongs to P or to Q ? # respond with the chosen item's label
Response line: Q
(Q: 8.31, P: 7.36)

====

assay_target: EGFR (D770_N771insNPG) (Homo sapiens (Human), UniProt P00533, INS770NPG)
Sequence (P00533 other isoform, or with tags, fused parts or gaps del 1-668/ins NPG behind 770 limits assumed): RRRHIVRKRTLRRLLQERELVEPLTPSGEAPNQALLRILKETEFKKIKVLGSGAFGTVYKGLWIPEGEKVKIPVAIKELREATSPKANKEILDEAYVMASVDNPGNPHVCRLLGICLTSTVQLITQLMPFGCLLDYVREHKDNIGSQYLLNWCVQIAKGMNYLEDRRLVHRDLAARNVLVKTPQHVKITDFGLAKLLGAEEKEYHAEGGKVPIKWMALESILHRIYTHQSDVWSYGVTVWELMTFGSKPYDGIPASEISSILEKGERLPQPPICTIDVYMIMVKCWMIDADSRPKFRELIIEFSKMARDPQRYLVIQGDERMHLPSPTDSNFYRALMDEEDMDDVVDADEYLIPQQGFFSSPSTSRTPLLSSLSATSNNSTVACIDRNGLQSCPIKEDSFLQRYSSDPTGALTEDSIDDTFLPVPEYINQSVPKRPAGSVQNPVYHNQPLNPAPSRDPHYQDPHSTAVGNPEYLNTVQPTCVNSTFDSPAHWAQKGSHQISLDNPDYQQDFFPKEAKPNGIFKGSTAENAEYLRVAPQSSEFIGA
assay_procedure: HotSpot radiometric kinase assay, EGFR (D770_N771insNPG)
assay_context: 10 μM ATP, read-out: EGFR (Δ770_N771insNPG) IC50
pIC50: −log10 of the molar value.
measured_attribute: pIC50

// worked examples, pIC50 included
[[record]]
compound = "CCOC(=O)Cn1nc(OCC)c2c1CN(CC)C[C@H](C)Oc1c(cnn1C)-c1ccc3[nH]nc(c3c1)/C=C/2"
observed = 6.79

[[record]]
compound = "Cc1c2c(nn1CCN1CCCC1)OCCCOc1c(cnn1C)-c1ccc3[nH]nc(c3c1)/C=C/2"
observed = 6.72

[[record]]
compound = "CCOc1ccc2c(n1)/C=C/c1n[nH]c3ccc(cc13)-c1cnn(C)c1O[C@@H](C)CN(C)C2"
observed = 5.91

[[record]]
compound = "C[C@H]1CN(C)Cc2c(c(OC3CCN(S(C)(=O)=O)CC3)nn2C)/C=C/c2n[nH]c3ccc(cc23)-c2cnn(C)c2O1"
observed = 5.79

[[record]]
compound = "Cc1nn([C@H]2CCNC[C@@H]2O)c2c1/C=C/c1n[nH]c3ccc(cc13)-c1cnn(C)c1OCCCO2 (racemic)"
observed = 7.23

[[record]]
compound = "CC(C)Oc1nn(CCO)c2c1/C=C/c1n[nH]c3cc(F)c(cc13)-c1cnn(C)c1O[C@H](C)[C@H]1CCCN1C2 (single isomer, unassigned)"
observed = 8.39

[[record]]
compound = "Cc1nn(C)c2c1/C=C/c1n[nH]c3ccc(cc13)-c1cnn(C)c1O[C@@H]1CCN(C2)C1"
observed = 7.33

[[record]]
compound = "Cc1c2c(nn1C)OCCCOc1c(cnn1C)-c1ccc3[nH]nc(c3c1)/C=C/2"
observed = 6.02

[[record]]
compound = "CCc1nn(C)c2c1/C=C/c1n[nH]c3ccc(cc13)-c1cnn(C)c1O[C@@H](C)COC2"
observed = 5.83

[[record]]
compound = "CCOc1nn(CCO)c2c1/C=C/c1n[nH]c3ccc(cc13)-c1cnn(C)c1O[C@H]1CN(C)C[C@@H]1N(C)C2 (single isomer, unassigned)"
observed = 6.20


(1) CCc1noc2c1/C=C/c1n[nH]c3ccc(cc13)-c1cnn(C)c1O[C@@H](C)CN(C)C2
(2) Cc1c2c(nn1CCN1CCOCC1)CN(C)C[C@H](C)Oc1c(cnn1C)-c1ccc3[nH]nc(c3c1)/C=C/2
Prompt line: // compare: 1 vs 2 , metric pIC50, want the smaller # respond with the chosen item's label
Response line: 1
(1: 6.00, 2: 6.86)

====

assay_target: EGFR (D770_N771insNPG) (Homo sapiens (Human), UniProt P00533, INS770NPG)
assay_procedure: HotSpot radiometric kinase assay, EGFR (D770_N771insNPG)
assay_context: 10 μM ATP, read-out: EGFR (Δ770_N771insNPG) IC50
pIC50: −log10 of the molar value.
measured_attribute: pIC50

[[record]]
compound = "CCOc1nn(C)c2c1/C=C/c1n[nH]c3ccc(cc13)-c1cnn(C)c1O[C@@H]1CCN(C2)C1"
assay_target = "EGFR (D770_N771insNPG) (Homo sapiens (Human), UniProt P00533, INS770NPG)"
observed = 7.16

[[record]]
compound = "Cc1c2c(nn1C)/C=C/c1n[nH]c3ccc(cc13)-c1cnn(C)c1O[C@@H](C)CN(C)C2"
assay_target = "EGFR (D770_N771insNPG) (Homo sapiens (Human), UniProt P00533, INS770NPG)"
observed = 6.88

[[record]]
compound = "Cc1nn(C)c2c1/C=C/c1n[nH]c3ccc(cc13)-c1cnn(C)c1OCCN1CC[C@@H](O2)C1=O"
assay_target = "EGFR (D770_N771insNPG) (Homo sapiens (Human), UniProt P00533, INS770NPG)"
observed = 6.53

[[record]]
compound = "CCc1nn(C)c2c1/C=C/c1n[nH]c3ccc(cc13)-c1cnn(C)c1OCC[C@@H](C)O2"
assay_target = "EGFR (D770_N771insNPG) (Homo sapiens (Human), UniProt P00533, INS770NPG)"
observed = 6.54


(a) Cc1nn(C)c2c1CN(C)C[C@H](C)Oc1c(cnn1C)-c1ccc3[nH]nc(c3c1)/C=C/2
(b) C[C@H]1CN(C)Cc2c(c(OC3CN(S(C)(=O)=O)C3)nn2CCO)/C=C/c2n[nH]c3ccc(cc23)-c2cnn(C)c2O1
(c) Cc1nn(C)c2c1/C=C/c1n[nH]c3ccc(cc13)-c1cnn(C)c1CN(C)C[C@H](C)O2 (single isomer, unassigned)
Prompt line: Rank the 3 compounds: largest pIC50 first, smallest last. Your reply should list the labels following the order given in the request.
Response line: b, c, a
(b: 7.99, c: 6.52, a: 6.07)

Numbers sourced from patent US20250353864A1.
